Tested on: COLO-680N (Esophageal Squamous Cell Carcinoma);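 note: after 72 h of two-drug dosing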
procedure summary: Bliss excess, mean over the matrix (fraction); higher = more synergy
Think of 0.009 as a floor: if Bliss excess stands on it or above, it is satisfied; beneath it, not satisfied.

CC1(C)CCC(CN2CCN(c3ccc(C(=O)NS(=O)(=O)c4ccc(NCC5CCOCC5)c([N+](=O)[O-])c4)c(Oc4cnc5[nH]ccc5c4)c3)CC2)=C(c2ccc(Cl)cc2)C1 [Venetoclax] + C=CCn1c(=O)c2cnc(Nc3ccc(N4CCN(C)CC4)cc3)nc2n1-c1cccc(C(C)(C)O)n1 [AZD1775] (first compound max 1 µM, partner max 1 µM) ... not satisfied

Ask: Bliss excess >= 0.009 for Cc1c2c(nn1C)CSCc1cc(n(C)n1)CSc1cc(c3ccccc3c1)OCCCc1c(C(=O)O)n(C)c3c-2c(Cl)ccc13 [AZD5991] + C[C@@H]1COCCN1C2=NC(=NC(=C2)C3(CC3)[S@](=N)(=O)C)C4=C5C=CNC5=NC=C4 [AZD6738] (first compound max 1 µM, 7x7, partner max 10 µM) ?
Result: satisfied

Ask: Bliss excess >= 0.009 for CN(C)CCCOc1ccc(-c2ccc3ncc4c(c3c2)n(C2CCOCC2)c(=O)n4C)cn1 [AZD0156] + O=C(c1cc(Cc2n[nH]c(=O)c3ccccc23)ccc1F)N1CCN(C(=O)C2CC2)CC1 [Olaparib] (first compound max 3 µM, partner max 3 µM) ?
Result: not satisfied

Ask: Bliss excess >= 0.009 for CCc1c2c(nc3ccc(O)cc13)-c1cc3c(c(=O)n1C2)COC(=O)[C@]3(O)CC [SN-38] + CN(C)CCCOc1ccc(-c2ccc3ncc4c(c3c2)n(C2CCOCC2)c(=O)n4C)cn1 [AZD0156] (first compound max 0.3 µM, 7x7, partner max 1 µM) ?
Result: satisfied

Ask: Bliss excess >= 0.009 for Cc1c2c(nn1C)CSCc1cc(n(C)n1)CSc1cc(c3ccccc3c1)OCCCc1c(C(=O)O)n(C)c3c-2c(Cl)ccc13 [AZD5991] + Cc1cc2ncnn2cc1Nc1ncc2c(n1)n(C1CCOCC1)c(=O)n2C [AZD7648] (first compound max 1 µM, 7x7, partner max 10 µM) ?
Result: not satisfied

Ask: Bliss excess >= 0.009 for CC(=O)Nc1cccc(-n2c(=O)n(C3CC3)c(=O)c3c(Nc4ccc(I)cc4F)n(C)c(=O)c(C)c32)c1 [Trametinib] + Cc1nc(-c2cn3c(n2)-c2ccc(-c4cnn(C(C)(C)C(N)=O)c4)cc2OCC3)n(C(C)C)n1 [Taselisib] (first compound max 1 µM, 7x7, partner max 10 µM) ?
Result: satisfied
